target: human GPR40 (Homo sapiens); construct: expressed in transfected cells; assay: Determination of EC50 on human GPR40 (intracellular calcium change by FLIPR in CHO cells stably expressing human GPR40); assay type: cell-based; details: CHO cell line stably expressing human GPR40; changes in intracellular calcium concentration measured by FLIPR (Fluo3-AM); read-out: EC50 (Receptor Function Modulating Action on GPR40)
Sequence (O14842 whole entry): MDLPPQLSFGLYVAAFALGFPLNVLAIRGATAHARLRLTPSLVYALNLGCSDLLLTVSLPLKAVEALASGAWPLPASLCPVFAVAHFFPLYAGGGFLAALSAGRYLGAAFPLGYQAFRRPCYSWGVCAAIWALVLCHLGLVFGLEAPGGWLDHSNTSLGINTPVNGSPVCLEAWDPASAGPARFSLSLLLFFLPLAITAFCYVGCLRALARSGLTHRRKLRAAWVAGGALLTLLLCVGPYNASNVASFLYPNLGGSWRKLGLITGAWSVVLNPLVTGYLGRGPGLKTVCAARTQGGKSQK
pEC50: −log10 of the molar value.
Would you mind telling me the reported pEC50 of each entry?

>>> endpoint_result("Cc1cccc(C)c1-c1cc(COc2ccc3c(c2)OCC3CC(=O)O)ccc1OCc1ccccc1 (centres unmarked) [Example 75]")
"> 7.00"

Items follow; give pEC50 for each.
1. Cc1cc(OCc2ccccc2)cc(C)c1-c1cccc(COc2ccc3c(c2)OCC3CC(=O)O)c1 (centres unmarked) [Example 70]
2. O=C(O)CC1COc2cc(OCc3ccc(CN(CCc4ccccc4)c4nc(-c5ccccc5)cs4)cc3)ccc21 (centres unmarked) [Example 73]
3. C/C(=C\COc1ccc2c(c1)OCC2CC(=O)O)c1ccc2c(c1)CCCC2 (centres unmarked) [Example 125]
4. O=C(O)CC1CCCc2nc(SCc3cccc(Oc4ccccc4)c3)sc21 (centres unmarked) [Example 78]
5. CCCN(Cc1ccc(COc2ccc3c(c2)OCCC(C(=O)O)C3)cc1)c1nc(-c2ccccc2)cs1 (centres unmarked) [Example 21]
6. CCCN(Cc1ccc(COc2ccc3c(c2)OCC3CC(=O)O)cc1)c1nc(-c2ccccc2)cs1 (centres unmarked) [Example 35]
7. CCCCOCCOc1ccc(-c2cccc(COc3ccc4c(c3)OCC4CC(=O)O)c2)c(C)c1 (centres unmarked) [Example 58]
8. O=C(O)CC1COc2cc(OCc3ccc(Cn4c(-c5ccccc5)cc5ccccc54)cc3)ccc21 (centres unmarked) [Example 66]

1: > 7.00; 2: > 6.00; 3: > 6.00; 4: > 7.00; 5: > 6.00; 6: > 7.00; 7: > 7.00; 8: > 7.00

Items follow; give pEC50 for each.
1. Cc1cccc(C)c1-c1cccc(COc2ccc3c(c2)CCCCC3CC(=O)O)c1 (centres unmarked) [Example 25]
2. Cc1cccc(C)c1-c1cccc(COc2ccc3c(c2)CCCC3CC(=O)O)c1 (centres unmarked) [Example 11]
3. Cc1cccc(C)c1-c1cccc(COc2ccc3c(c2)CCC3CC(=O)O)c1 (centres unmarked) [Example 17]
4. Cc1cccc(C)c1-c1cccc(COc2ccc3c(c2)OCC3CC(=O)O)c1 (centres unmarked) [Example 33]

1: > 6.00; 2: > 7.00; 3: > 7.00; 4: > 7.00

The reported pEC50 of the compound Cc1ccc2ccccc2c1-c1cccc(COc2ccc3c(c2)OCC3CC(=O)O)c1 (centres unmarked) [Example 47] was > 7.00
